Tested on: cataracts in rats
Assay: Prevention or retardation of cataracts in galactose-fed rats
Assay type: in vivo, rat
Settings: Study Day 20; 30% galactose diet; A,C,E 0.0025%, B,D 0.01%
Procedure: The compounds to be tested were: Test compound/diet mixtures were formulated as follows: […] Similarly, the 0.01% level was designed to provide a drug concentration of 20 mg per kilogram per day. […] Sufficient amounts of test compound/diet mixture were maintained in the food hoppers to allow the animals to eat ad libitum. All aliquots of test compound/diet mixture added to the food hoopers were weighed and the weights, as well as day of addition, recorded. […]
recorded.endpoint: Number of Eyes Observed, N (nuclear cataract) (eyes)
Quick note: give the figure in eyes, leave out the unit.

compound: CSc1ccc2c(c1)C1(CCO2)NC(=O)NC1=O (stereo not shown) [A]
output.unit: eyes
observed: 0
//
compound: CSc1ccc2c(c1)C1(CCO2)NC(=O)NC1=O (stereo not shown) [B]
output.unit: eyes
observed: 0
//
compound: O=C1NC(=O)C2(CCOc3ccc(F)cc32)N1 (stereo not shown)
output.unit: eyes
observed: 0

## Input Please indicate Number of Eyes Observed, N (nuclear cataract) recorded for C[S+]([O-])c1ccc2c(c1)C1(CCO2)NC(=O)NC1=O (stereo not shown)
## Output 1
